- system: PfFabI (Plasmodium falciparum, UniProt Q9BH77)
- Sequence (Q9BH77 22-432): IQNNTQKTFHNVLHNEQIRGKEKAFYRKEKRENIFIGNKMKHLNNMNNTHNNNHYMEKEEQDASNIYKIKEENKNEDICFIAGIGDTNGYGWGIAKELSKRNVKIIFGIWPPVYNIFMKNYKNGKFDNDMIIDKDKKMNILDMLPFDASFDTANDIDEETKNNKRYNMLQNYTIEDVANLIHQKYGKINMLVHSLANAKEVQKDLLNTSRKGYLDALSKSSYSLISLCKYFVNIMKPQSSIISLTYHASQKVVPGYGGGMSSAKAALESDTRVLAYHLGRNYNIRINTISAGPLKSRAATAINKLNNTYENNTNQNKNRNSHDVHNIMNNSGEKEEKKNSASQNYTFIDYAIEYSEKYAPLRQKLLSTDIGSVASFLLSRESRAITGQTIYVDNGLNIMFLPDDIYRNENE
- assay_procedure: Inhibition of PfFabI
- Format: biochemical
- reported_conditions: read-out: IC50 PfFabI; Carballeira and Tasdemir, unpublished data
property_label: pIC50
Worth noting: pIC50 values are minus log10 of concentrations stated in mol/L.

# input compound: CCCCCCCCCCCCCC#CC(=O)O ; wanted: its pIC50
5.82

* * *

- system: PfFabG (Plasmodium falciparum)
- assay_procedure: biochemical
- reported_conditions: read-out: IC50 PfFabG; Carballeira and Tasdemir, unpublished data
property_label: IC50 (µM)
Report only the number, with the unit µM understood.

# input compound: CCCCCCCCCCCCCC#CC(=O)O [2-HDA, 2-hexadecynoic acid] ; wanted: its IC50
13.9

* * *

- system: hTopIB (Homo sapiens)
- Sequence (P11387 1-765): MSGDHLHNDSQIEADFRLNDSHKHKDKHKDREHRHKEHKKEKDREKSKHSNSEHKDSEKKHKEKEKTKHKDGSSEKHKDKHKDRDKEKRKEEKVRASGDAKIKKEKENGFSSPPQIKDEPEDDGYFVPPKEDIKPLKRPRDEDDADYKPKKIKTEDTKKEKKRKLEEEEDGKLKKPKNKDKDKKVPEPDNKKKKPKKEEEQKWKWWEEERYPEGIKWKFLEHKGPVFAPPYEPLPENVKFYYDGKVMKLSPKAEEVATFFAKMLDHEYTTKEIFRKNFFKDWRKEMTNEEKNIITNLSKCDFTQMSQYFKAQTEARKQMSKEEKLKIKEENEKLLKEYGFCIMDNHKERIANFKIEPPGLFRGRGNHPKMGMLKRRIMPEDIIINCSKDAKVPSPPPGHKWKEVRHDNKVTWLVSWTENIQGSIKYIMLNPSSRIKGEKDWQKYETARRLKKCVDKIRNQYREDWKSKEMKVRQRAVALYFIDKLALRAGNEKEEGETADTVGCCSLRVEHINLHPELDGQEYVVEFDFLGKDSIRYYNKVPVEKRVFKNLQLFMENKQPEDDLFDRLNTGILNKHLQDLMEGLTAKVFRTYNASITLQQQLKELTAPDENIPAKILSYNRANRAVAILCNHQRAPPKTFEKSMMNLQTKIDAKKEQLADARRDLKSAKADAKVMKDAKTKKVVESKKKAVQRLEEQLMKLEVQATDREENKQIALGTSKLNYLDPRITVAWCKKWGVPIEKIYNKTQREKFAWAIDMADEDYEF
property_label: pIC50
Worth noting: pIC50 values are minus log10 of concentrations stated in mol/L.

# input compound: CCCCCCCCCCCCCC#CC(=O)O [2-HDA, 2-hexadecynoic acid] ; wanted: its pIC50
3.44

Origin of measurements: paper PMC4110683
